# System: HUH7
# TEST DETAILS: Cell proliferation assay (Alamar Blue)
# Format: cell-based
# CONDITION DESCRIPTION: Homo sapiens, Huh-7, 144 h; HUH7 liver cancer cell line; 6 days
Measured pIC50 of individual entries
# pIC50 = -log10(concentration in molar units)

Consider the following illustrative entries.
Cc1ccc(F)c(NC(=O)Nc2ccc(-c3cccc4c3c(N)nn4C(=O)CCCCCNC(=O)C[C@H](N)C(=O)N[C@@H](CCC(=O)N[C@@H](CCC(=O)N[C@@H](CCC(=O)N[C@@H](CCC(=O)O)C(=O)O)C(=O)O)C(=O)O)C(=O)O)cc2)c1 = 4.11
Cc1ccc(F)c(NC(=O)Nc2ccc(-c3cccc4c3c(N)nn4C(=O)CCCCCNC(=O)C[C@H](N)C(=O)O)cc2)c1 = 4.38
Cc1ccc(F)c(NC(=O)Nc2ccc(-c3cccc4c3c(N)nn4C(=O)C[C@H](N)C(=O)N[C@@H](CCC(=O)O)C(=O)O)cc2)c1 = 5.49
Cc1ccc(F)c(NC(=O)Nc2ccc(-c3cccc4c3c(N)nn4C(=O)CCCCCCCCCCCNC(=O)C[C@H](N)C(=O)N[C@@H](CCC(=O)O)C(=O)O)cc2)c1 = 4.66
Cc1ccc(F)c(NC(=O)Nc2ccc(-c3cccc4c3c(N)nn4C(=O)CCCCCCCCCCCNC(=O)C[C@H](N)C(=O)N[C@@H](CCC(=O)N[C@@H](CCC(=O)N[C@@H](CCC(=O)N[C@@H](CCC(=O)N[C@@H](CCC(=O)N[C@@H](CCC(=O)N[C@@H](CCC(=O)N[C@@H](CCC(=O)N[C@@H](CCC(=O)O)C(=O)O)C(=O)O)C(=O)O)C(=O)O)C(=O)O)C(=O)O)C(=O)O)C(=O)O)C(=O)O)cc2)c1 = 4.52

Consider the molecule Cc1ccc(F)c(NC(=O)Nc2ccc(-c3cccc4c3c(N)nn4C(=O)C[C@H](N)C(=O)N[C@@H](CCC(=O)N[C@@H](CCC(=O)N[C@@H](CCC(=O)N[C@@H](CCC(=O)O)C(=O)O)C(=O)O)C(=O)O)C(=O)O)cc2)c1 and give its measured pIC50.
5.36

Okay, and Cc1ccc(F)c(NC(=O)Nc2ccc(-c3cccc4c3c(N)nn4C(=O)C[C@H](N)C(=O)N[C@@H](CCC(=O)N[C@@H](CCC(=O)N[C@@H](CCC(=O)N[C@@H](CCC(=O)N[C@@H](CCC(=O)N[C@@H](CCC(=O)N[C@@H](CCC(=O)N[C@@H](CCC(=O)N[C@@H](CCC(=O)O)C(=O)O)C(=O)O)C(=O)O)C(=O)O)C(=O)O)C(=O)O)C(=O)O)C(=O)O)C(=O)O)cc2)c1 ?
5.17

* * *

# reported pIC50; entries follow
# System: SNU886
# TEST DETAILS: Cell proliferation assay (Alamar Blue)
# Type: cell-based
# CONDITION DESCRIPTION: SNU-886, 144 h; SNU886 liver cancer cell line; 6 days
# Experimental: 1. Instruments and Materials • Thermo 311 CO2 incubator; Haier biosafety cabinet; Molecular Devices microplate reader; Xiangyi brand L530 desktop low speed centrifuge; Olympus IX51 inverted fluorescence microscope, DMEM, RPMI 1640, MEM, DMEM/F12 1:1 medium, Fetal bovine serum, 0.25% trypsin solution, phosphate buffer (Thermo Fisher Shanghai Co., Ltd.); sigma dimethyl sulfoxide (DMSO), resazurin; 54 commercial tumor cell lines (including 26 liver cancer cell lines). […]
Please note pIC50 is a logarithmic value: minus log10 of concentration in mol/L. Answer with that number alone.

Worked examples, 2 compounds total:
Cc1ccc(F)c(NC(=O)Nc2ccc(-c3cccc4c3c(N)nn4C(=O)CCCCCCCCCCCNC(=O)C[C@H](N)C(=O)N[C@@H](CCC(=O)O)C(=O)O)cc2)c1 = 4.66
Cc1ccc(F)c(NC(=O)Nc2ccc(-c3cccc4c3c(N)nn4C(=O)CCCCCNC(=O)C[C@H](N)C(=O)N[C@@H](CCC(=O)O)C(=O)O)cc2)c1 = 4.02

What value of pIC50 on SNU886 does Cc1ccc(F)c(NC(=O)Nc2ccc(-c3cccc4[nH]nc(N)c34)cc2)c1 [Linifanib, reference compound] have?
5.35

And for Cc1ccc(F)c(NC(=O)Nc2ccc(-c3cccc4c3c(N)nn4C(=O)C[C@H](N)C(=O)N[C@@H](CCC(=O)O)C(=O)O)cc2)c1 ?
5.83

Provenance of the data: patent US11351151B2
